Tested on: A. fum.
ASSAY REMARKS: In vitro antifungal MIC, NCCLS M38P broth method in RPMI 1640/MOPS pH 7
Format: cell-based, Aspergillus fumigatus
MEASUREMENT CONTEXT: Aspergillus fumigatus; A. fumigatus strain 1008; RPMI 1640, MOPS pH 7; read-out: MIC (A. fum.) 1008
PROPERTY MEASURED: MIC

Problem: Return reported MIC; argument: C[C@@H](N(NC(=O)OC(C)(C)C)C(=O)Nc1ccc(OCC(F)(F)C(F)F)cc1)[C@](O)(Cn1cncn1)c1ccc(F)cc1F [Compound No. 26]
Solution: > 16 µg/mL

Problem: Return reported MIC; argument: C[C@@H](N(N)C(=S)Nc1ccc(Cl)cn1)[C@](O)(Cn1cncn1)c1ccc(F)cc1F [Compound No. 37]
Solution: 0.5 µg/mL

Problem: Return reported MIC; argument: C[C@@H](n1ncn(-c2ccc(Cl)cn2)c1=S)[C@](O)(Cn1cncn1)c1ccc(F)cc1F [Compound No. 55]
Solution: 4 µg/mL
